The source made the active and inactive calls.
Entries below carry reported Kd on Casein kinase I isoform gamma-1 (Homo sapiens, UniProt Q9HCP0).
Sequence (Q9HCP0 whole entry, canonical isoform): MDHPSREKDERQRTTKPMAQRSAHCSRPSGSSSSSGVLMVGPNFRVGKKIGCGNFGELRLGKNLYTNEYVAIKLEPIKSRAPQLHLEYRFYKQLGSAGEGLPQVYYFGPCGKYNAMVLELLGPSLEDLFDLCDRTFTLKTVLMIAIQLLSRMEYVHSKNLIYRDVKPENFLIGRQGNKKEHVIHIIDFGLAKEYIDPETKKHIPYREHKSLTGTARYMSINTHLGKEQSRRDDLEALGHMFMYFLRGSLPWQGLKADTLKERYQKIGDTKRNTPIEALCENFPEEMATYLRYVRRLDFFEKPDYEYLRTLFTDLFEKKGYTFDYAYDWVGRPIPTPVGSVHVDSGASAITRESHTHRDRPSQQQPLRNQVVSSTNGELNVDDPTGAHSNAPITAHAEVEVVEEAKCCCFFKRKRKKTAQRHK
assay_endpoint: Kd

{"mol": "CN1CCN(CCOc2cc(OC3CCOCC3)c3c(Nc4c(Cl)ccc5c4OCO5)ncnc3c2)CC1", "recorded_value": "> 30 µM (inactive)"}
{"mol": "Cc1nc2cc(-n3ncc(C(=O)c4cc5ccccc5[nH]4)c3N)ccc2[nH]1", "recorded_value": "> 30 µM (inactive)"}
{"mol": "Cc1cccc(-c2nn3c(c2-c2ccnc4ccc(C(N)=O)cc24)CCC3)n1", "recorded_value": "> 30 µM (inactive)"}
{"mol": "Cc1nc2cc(-c3nn(C(C)C)c4ncnc(N)c34)ccc2o1", "recorded_value": "> 30 µM (inactive)"}

* * *

Biological target: Ephrin type-A receptor 5 (Homo sapiens); further: in the data inactive means no Kd found up to 30 µM
Sequence (P54756 whole entry): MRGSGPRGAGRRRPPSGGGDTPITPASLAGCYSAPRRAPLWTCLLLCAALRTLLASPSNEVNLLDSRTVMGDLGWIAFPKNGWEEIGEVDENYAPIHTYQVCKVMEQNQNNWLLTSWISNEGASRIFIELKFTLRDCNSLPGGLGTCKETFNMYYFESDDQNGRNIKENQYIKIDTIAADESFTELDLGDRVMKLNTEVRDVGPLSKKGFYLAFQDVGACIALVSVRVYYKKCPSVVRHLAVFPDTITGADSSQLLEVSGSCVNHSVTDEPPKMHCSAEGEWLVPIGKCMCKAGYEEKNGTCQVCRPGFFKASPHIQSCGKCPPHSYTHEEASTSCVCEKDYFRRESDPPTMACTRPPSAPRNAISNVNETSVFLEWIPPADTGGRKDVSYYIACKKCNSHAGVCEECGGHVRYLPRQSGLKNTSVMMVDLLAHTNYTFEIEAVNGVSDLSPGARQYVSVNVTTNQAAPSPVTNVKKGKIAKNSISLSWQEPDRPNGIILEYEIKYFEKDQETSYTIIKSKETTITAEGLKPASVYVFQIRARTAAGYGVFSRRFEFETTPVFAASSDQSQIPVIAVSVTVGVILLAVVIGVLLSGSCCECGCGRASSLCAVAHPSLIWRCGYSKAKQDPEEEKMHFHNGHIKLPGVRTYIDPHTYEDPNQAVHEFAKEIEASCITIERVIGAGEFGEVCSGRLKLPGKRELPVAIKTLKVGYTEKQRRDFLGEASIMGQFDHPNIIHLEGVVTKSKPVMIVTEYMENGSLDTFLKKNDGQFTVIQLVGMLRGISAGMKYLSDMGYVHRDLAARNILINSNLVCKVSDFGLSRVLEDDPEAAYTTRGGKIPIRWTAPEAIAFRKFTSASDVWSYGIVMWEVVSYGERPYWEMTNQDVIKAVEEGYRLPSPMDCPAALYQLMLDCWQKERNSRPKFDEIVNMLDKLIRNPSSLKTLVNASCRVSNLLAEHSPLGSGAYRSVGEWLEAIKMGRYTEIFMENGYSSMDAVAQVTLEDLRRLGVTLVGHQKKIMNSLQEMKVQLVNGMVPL
Calls of active or inactive are those of the source.
Labels: active, inactive

{"molecule": "O=C(Cc1ccc(-c2ccc(OCCN3CCOCC3)cc2)cn1)NCc1ccccc1 [TIRBANIBULIN]", "experimental_system": "Ephrin type-A receptor 5 (Homo sapiens)", "category_label": "inactive"}
{"molecule": "Cc1nc(NC(=O)N2CCC[C@H]2C(N)=O)sc1-c1ccnc(C(C)(C)C(F)(F)F)c1 [ALPELISIB]", "experimental_system": "Ephrin type-A receptor 5 (Homo sapiens)", "category_label": "inactive"}
{"molecule": "CO[C@H]1C[C@@H]2CC[C@@H](C)[C@@](O)(O2)C(=O)C(=O)N2CCCC[C@H]2C(=O)O[C@H]([C@H](C)C[C@@H]2CC[C@@H](O)[C@H](OC)C2)CC(=O)[C@H](C)/C=C(\\C)[C@@H](O)[C@@H](OC)C(=O)[C@H](C)C[C@H](C)/C=C/C=C/C=C/1C [SIROLIMUS]", "experimental_system": "Ephrin type-A receptor 5 (Homo sapiens)", "category_label": "inactive"}
{"molecule": "CNC(=O)c1nn(C)c2c1C(C)(C)Cc1cnc(Nc3ccc(N4CCN(C)CC4)cc3)nc1-2 [MILCICLIB]", "experimental_system": "Ephrin type-A receptor 5 (Homo sapiens)", "category_label": "active"}
{"molecule": "CN1CCN(CCOc2cc(OC3CCOCC3)c3c(Nc4c(Cl)ccc5c4OCO5)ncnc3c2)CC1 [SARACATINIB]", "experimental_system": "Ephrin type-A receptor 5 (Homo sapiens)", "category_label": "active"}
{"molecule": "CNC(=O)c1cc(Oc2ccc(NC(=O)Nc3cc(C(C)(C)C)nn3-c3ccc4ncccc4c3)c(F)c2)ccn1 [REBASTINIB]", "experimental_system": "Ephrin type-A receptor 5 (Homo sapiens)", "category_label": "inactive"}

* * *

Molecular target: Serine/threonine-protein kinase NLK (Homo sapiens); further: in the data inactive means no Kd found up to 30 µM
Sequence (Q9UBE8 whole entry): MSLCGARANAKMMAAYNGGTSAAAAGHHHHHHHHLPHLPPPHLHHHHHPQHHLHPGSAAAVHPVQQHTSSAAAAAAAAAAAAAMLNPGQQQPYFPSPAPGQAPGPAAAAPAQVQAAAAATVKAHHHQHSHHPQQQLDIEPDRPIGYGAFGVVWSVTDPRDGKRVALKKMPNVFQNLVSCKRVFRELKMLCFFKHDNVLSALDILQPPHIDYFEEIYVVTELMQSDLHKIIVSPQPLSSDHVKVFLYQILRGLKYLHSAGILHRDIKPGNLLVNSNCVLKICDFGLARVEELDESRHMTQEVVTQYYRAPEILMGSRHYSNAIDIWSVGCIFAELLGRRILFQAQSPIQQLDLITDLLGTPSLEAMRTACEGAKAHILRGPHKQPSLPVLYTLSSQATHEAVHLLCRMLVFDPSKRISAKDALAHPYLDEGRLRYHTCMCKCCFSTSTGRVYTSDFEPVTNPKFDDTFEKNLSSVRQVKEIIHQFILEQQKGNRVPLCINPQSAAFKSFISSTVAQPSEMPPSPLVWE
Counter-ions that a name gives are not always drawn. Activity calls are given as the source filed them.

{"compound": "NC(=O)c1c(OCc2c(F)cc(Br)cc2F)nsc1NC(=O)NCCCCN1CCCC1", "Kd": "> 30 µM (inactive)"}
{"compound": "CNC(=O)c1cccc2cc(Oc3ccnc4cc(OCC5(N)CC5)c(OC)cc34)ccc12", "Kd": "> 30 µM (inactive)"}
{"compound": "NC(=O)Nc1cc(-c2cccc(F)c2)sc1C(=O)N[C@H]1CCCNC1", "Kd": "> 30 µM (inactive)"}
{"compound": "O=C(Nc1nc2cccc(-c3ccc(CN4CCS(=O)(=O)CC4)cc3)n2n1)C1CC1", "Kd": "> 30 µM (inactive)"}
{"compound": "CN1C/C=C/CCOc2cccc(c2)-c2ccnc(n2)Nc2cccc(c2)C1", "Kd": "> 30 µM (inactive)"}
{"compound": "CCCCCCCCCCCCCCCCCCOP(=O)([O-])OC1CC[N+](C)(C)CC1", "Kd": "> 30 µM (inactive)"}
{"compound": "COCC(=O)NC/C=C/c1ccc2ncnc(Nc3ccc(Oc4ccc(C)nc4)c(C)c3)c2c1", "Kd": "> 30 µM (inactive)"}
{"compound": "CC(C)c1cc(CNc2nc(Nc3cc(C4CC4)[nH]n3)cc(N3CCN(C)CC3)n2)on1", "Kd": "> 30 µM (inactive)"}
{"compound": "CCS(=O)(=O)N1CCN(c2ccc(Nc3ncc(C(N)=O)c(NC4CC4)n3)cc2)CC1 [Cerdulatinib Hydrochloride]", "Kd": "> 30 µM (inactive)"}
